- Test system: Pasteurella
- RUN_DESCRIPTION: etest on agar containing the booster
- Type: cell-based
- CONDITION_PARAMETERS: strain 14012; 5 mg cineol TE
QUANTITY: MIC (e-test)
Please report the result as a number followed by the unit.

A selection of reference data follows.
| STRUCTURE_SMILES_STRING | QUANTITY | RESULT |
| --- | --- | --- |
| O=C(O)c1cn(C2CC2)c2cc(N3CCNCC3)c(F)cc2c1=O | MIC (e-test) | 0.004 µg/mL |
| CO[C@@]1(NC(=O)Cc2cccs2)C(=O)N2C(C(=O)O)=C(COC(N)=O)CS[C@@H]21 | MIC (e-test) | 0.5 µg/mL |
| C[C@@H](O)[C@H]1C(=O)N2C(C(=O)O)=C(S[C@@H]3CN[C@H](C(=O)N(C)C)C3)[C@H](C)[C@H]12 | MIC (e-test) | 0.008 µg/mL |

We next turn to a different compound, shown below.
Task: Which value of MIC (e-test) has been reported for CC1(C)S[C@@H]2[C@H](NC(=O)[C@H](N)c3ccc(O)cc3)C(=O)N2[C@H]1C(=O)O in the records?
Output: 0.094 µg/mL
